B1: TRAF3IP2 (parent)
chain: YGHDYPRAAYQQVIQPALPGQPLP

Variants of: B1
Experiment: protein stability index of a GFP-peptide fusion (GPS, HEK-293T) (PSI 1-6); higher = more stable;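 also: lentivirally expressed fusions sorted by FACS into six bins by GFP to DsRed ratio, PSI derived from sequencing read proportions per bin multiplied by bin number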
Settings: c terminus: a fixed tail appended
METRIC NAME: protein stability index
I only need the number, thanks.

Here's what some known entries look like.
INSERT INTO results (record_sequence, readout_value) VALUES
  ('YGHDYPRAAYQQVIQPALKGQPLP [P19K]', 2.14),
  ('YGHDYPRAAYQQVIQPRLPGQPLP [A17R]', 1.74),
  ('YGHDYPRAAYQQVGQPALPGQPLP [I14G]', 1.92),
  ('YGHDQPRAAYQQVIQPALPGQPLP [Y5Q]', 3.83),
  ('YGHDYPRAAYQLVIQPALPGQPLP [Q12L]', 1.98),
  ('YGHDYPRAAYQQKIQPALPGQPLP [V13K]', 1.75),
  ('YGHDYPRAAYQQVIQPALIGQPLP [P19I]', 2.54),
  ('YGHDYPRAAYQQVIQPHLPGQPLP [A17H]', 2.08);

q: Would you kindly share the measured protein stability index for YGHDYPRAAYQQFIQPALPGQPLP [V13F] ?
a: 2.38

q: What do you get for YGHDYPRAAHQQVIQPALPGQPLP [Y10H] ?
a: 2.52

q: Same again, this time with YGHDYPRWAYQQVIQPALPGQPLP [A8W]
a: 2.64

q: Next variant: CGHDYPRAAYQQVIQPALPGQPLP [Y1C]
a: 2.52

q: Also, YGHDYPRAAVQQVIQPALPGQPLP [Y10V] please.
a: 2.13

q: Then what about the variant YGHDYPRAAYQQRIQPALPGQPLP [V13R] ?
a: 1.93

q: Same thing, different variant: YGHDCPRAAYQQVIQPALPGQPLP [Y5C]
a: 3.5

q: And what about the variant LGHDYPRAAYQQVIQPALPGQPLP [Y1L] ?
a: 3.95

q: Now give it for YGHDYPRAAYQQVNQPALPGQPLP [I14N] too.
a: 1.92

q: Also, YGHDYPRAAYQQVIQPALPGEPLP [Q21E] please.
a: 2.2

q: Could you do the same for YGSDYPRAAYQQVIQPALPGQPLP [H3S] , please?
a: 2.2

q: Next record, please: YGHDYPRLAYQQVIQPALPGQPLP [A8L]
a: 2.7

q: Now the same for YGHDYPRAAYQQVIQTALPGQPLP [P16T]
a: 2.27

q: Same question for YGHDYPRAAYQQVIQPALGGQPLP [P19G] please.
a: 1.9
